Measured values drawn from ChEMBL document CHEMBL4689842 for this set.

List of Population Normal (%) values.
Test system: HEK-293T
Assay: Multiplex assay against HEK293T
Format: toxicity, cell-based
Details: human, 48 h, 1 µM, compound concentration 1 uM, replicate 2
endpoint.label: Population Normal (%)

molecule=Cc1csc2c(N[C@@H](C)CN3CCN(S(=O)(=O)c4ccc(Cl)c(Cl)c4)CC3)ncnc12 units_of_measure=% reported=91
molecule="CN1CCN(CCOc2cc(OC3CCOCC3)c3c(Nc4c(Cl)ccc5c4OCO5)ncnc3c2)CC1 [SARACATINIB]" units_of_measure=% reported=94
molecule="COc1ncc(-c2ccc3nccc(-c4ccnnc4)c3c2)cc1NS(=O)(=O)c1ccc(F)cc1F [OMIPALISIB]" units_of_measure=% reported=92
molecule="COc1cccc([C@@H](C)NCCCc2ccccc2Cl)c1.Cl [TECALCET HYDROCHLORIDE]" units_of_measure=% reported=96

====

In this section, each of the compounds is paired with its reported Population Normal (%).
Tested on: HEK-293T
Test: Multiplex assay against HEK293T
Format: toxicity, cell-based
Details: human, 24 h, 1 µM, compound concentration 1 uM, replicate 1
endpoint.label: Population Normal (%)

compound=CNc1nc(NCc2ccc(NS(C)(=O)=O)cc2Cl)cc(-c2ccccn2)n1 endpoint_label="Population Normal (%)" reported=81
compound=OC1(c2ccc(Cl)cc2)CCN(Cc2c[nH]c3ccccc23)CC1 endpoint_label="Population Normal (%)" reported=83
compound="Cc1nc(-c2ccc(-c3ccc(C(=O)N4CCc5cc6c(cc54)C4(CCN(C)CC4)CO6)cc3)c(C)c2)no1 [SB-224289]" endpoint_label="Population Normal (%)" reported=89
compound="CN(C)C(=O)N[C@H]1CC[C@H](CCN2CCN(c3cccc(Cl)c3Cl)CC2)CC1.Cl [CARIPRAZINE HYDROCHLORIDE]" endpoint_label="Population Normal (%)" reported=88
compound=Cc1csc2c(N[C@@H](C)CN3CCN(S(=O)(=O)c4ccc(Cl)c(Cl)c4)CC3)ncnc12 endpoint_label="Population Normal (%)" reported=81
compound="c1cn2cc(-c3ccc4cn[nH]c4c3)nc(Nc3ccc(N4CCOCC4)cc3)c2n1 [ENTOSPLETINIB]" endpoint_label="Population Normal (%)" reported=84
compound="CN1CCCC(n2nc(Cc3ccc(Cl)cc3)c3ccccc3c2=O)CC1.Cl (stereo not drawn) [AZELASTINE HYDROCHLORIDE]" endpoint_label="Population Normal (%)" reported=88
compound=Cc1[nH]c(/C=C2\C(=O)Nc3ccc(S(=O)(=O)N(C)c4cccc(Cl)c4)cc32)c(C)c1C(=O)N1CCN(C)CC1 endpoint_label="Population Normal (%)" reported=81

====

Below is a list of entries, each paired with its recorded Population Mitotic Cells (%) value.
System: Fibroblast
Test: Multiplex assay against human fibroblast
Format: toxicity, cell-based
Conditions: 48 h, 1 µM, compound concentration 1 uM, replicate 2
endpoint.label: Population Mitotic Cells (%)

compound=CN(C)C(=O)/C(C#N)=C/c1ccc(-c2nc3cnc4[nH]ccc4c3n2C2CCCCC2)o1 reported=0
compound=c1cn2cc(-c3ccc4cn[nH]c4c3)nc(Nc3ccc(N4CCOCC4)cc3)c2n1 reported=66
compound=Cc1csc2c(N[C@@H](C)CN3CCN(S(=O)(=O)c4ccc(Cl)c(Cl)c4)CC3)ncnc12 reported=0
compound=C=CC(=O)Nc1cccc(C(=O)Nc2ccc(Nc3cc(-c4[nH]c(SC)nc4C)ccn3)cc2)c1 reported=0
compound=Cc1nc(-c2ccc(-c3ccc(C(=O)N4CCc5cc6c(cc54)C4(CCN(C)CC4)CO6)cc3)c(C)c2)no1 reported=100
compound=CC[C@H](C)C(=O)O[C@H]1C[C@@H](C)C=C2C=C[C@H](C)[C@H](CC[C@@H]3C[C@@H](O)CC(=O)O3)[C@H]21 reported=66
compound="CC(C)NCC(O)COc1ccc(CCOCC2CC2)cc1.Cl (stereo not drawn) [BETAXOLOL HYDROCHLORIDE]" reported=16
compound=CN1CCN(CCOc2cc(OC3CCOCC3)c3c(Nc4c(Cl)ccc5c4OCO5)ncnc3c2)CC1 reported=33
